Target: P2Y purinoceptor 14 (Homo sapiens, UniProt Q15391)
Sequence (Q15391 whole entry): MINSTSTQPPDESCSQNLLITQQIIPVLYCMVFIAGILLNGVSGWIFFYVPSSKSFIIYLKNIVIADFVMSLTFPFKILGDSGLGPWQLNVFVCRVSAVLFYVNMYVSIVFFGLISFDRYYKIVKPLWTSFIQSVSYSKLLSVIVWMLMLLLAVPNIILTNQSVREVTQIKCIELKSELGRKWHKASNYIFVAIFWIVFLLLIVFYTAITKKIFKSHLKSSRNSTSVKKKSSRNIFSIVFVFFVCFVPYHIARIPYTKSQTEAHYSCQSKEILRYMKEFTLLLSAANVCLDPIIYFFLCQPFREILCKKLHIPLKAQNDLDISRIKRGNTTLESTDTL
Assay: Agonist activity at human P2Y14 receptor expressed in COS7 cells assessed as stimulation of PLC
Type: functional, cell-based, COS-7
Conditions: cos-7
PROPERTY_MEASURED: EC50 (µM)
Report the value in µM with no unit label.

Lookup: Returns the measured EC50 for the input compound. Input: CC(=O)N[C@@H]1[C@H](OP(=O)(O)OP(=O)(O)OC[C@H]2O[C@@H](n3ccc(=O)[nH]c3=O)[C@H](O)[C@@H]2O)O[C@@H](CO)[C@H](O)[C@H]1O
Found: 4.38

Data provenance is ChEMBL document CHEMBL1138408.
